- system tested: CYP17A1 (17α-hydroxylase/17,20 lyase) (Homo sapiens)
- Construct: human recombinant CYP17A1 co-expressed with POR in yeast microsomes; with human P450 oxidoreductase (POR)
- Sequence (P05093 whole entry): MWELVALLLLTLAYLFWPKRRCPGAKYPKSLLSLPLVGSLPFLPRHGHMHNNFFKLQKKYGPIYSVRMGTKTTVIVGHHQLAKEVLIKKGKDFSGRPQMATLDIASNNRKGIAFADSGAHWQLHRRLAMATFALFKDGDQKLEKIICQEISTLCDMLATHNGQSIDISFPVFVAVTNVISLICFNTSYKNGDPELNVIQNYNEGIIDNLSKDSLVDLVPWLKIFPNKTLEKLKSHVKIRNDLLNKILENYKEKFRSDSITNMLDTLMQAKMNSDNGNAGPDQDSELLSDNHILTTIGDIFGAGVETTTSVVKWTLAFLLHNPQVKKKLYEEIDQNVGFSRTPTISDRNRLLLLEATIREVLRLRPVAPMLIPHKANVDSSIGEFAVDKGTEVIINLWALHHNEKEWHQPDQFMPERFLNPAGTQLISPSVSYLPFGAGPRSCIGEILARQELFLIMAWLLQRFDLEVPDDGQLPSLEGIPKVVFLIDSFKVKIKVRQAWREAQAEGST
- Sequence (P16435 2-677 partner): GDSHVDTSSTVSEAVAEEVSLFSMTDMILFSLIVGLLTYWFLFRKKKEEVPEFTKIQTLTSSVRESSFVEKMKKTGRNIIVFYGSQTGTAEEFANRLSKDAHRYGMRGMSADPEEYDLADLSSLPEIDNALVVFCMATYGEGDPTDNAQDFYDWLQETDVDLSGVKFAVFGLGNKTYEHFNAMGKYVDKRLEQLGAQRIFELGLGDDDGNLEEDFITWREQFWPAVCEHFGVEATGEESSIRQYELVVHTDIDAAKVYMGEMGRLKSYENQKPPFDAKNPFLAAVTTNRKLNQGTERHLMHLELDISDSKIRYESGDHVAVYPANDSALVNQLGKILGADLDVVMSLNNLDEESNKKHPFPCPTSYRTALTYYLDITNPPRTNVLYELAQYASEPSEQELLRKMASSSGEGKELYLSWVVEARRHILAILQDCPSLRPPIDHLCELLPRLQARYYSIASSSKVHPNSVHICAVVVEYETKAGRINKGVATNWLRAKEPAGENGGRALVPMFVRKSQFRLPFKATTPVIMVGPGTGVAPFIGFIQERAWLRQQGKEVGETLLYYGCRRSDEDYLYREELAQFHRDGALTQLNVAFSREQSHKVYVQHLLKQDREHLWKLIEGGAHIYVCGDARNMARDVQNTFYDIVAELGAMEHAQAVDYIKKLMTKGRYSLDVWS
- experimental protocol: […]α-hydroxylase activity in yeast microsomes with radiolabelled steroid substrate, TLC readout, dose-response
assay metric: IC50 (nM)
Provide only the numeric value, understood in nM.

The compound listed as "c1cc(-c2cnn3cc(-c4ccc(OCCN5CCCCC5)cc4)cnc23)ccn1" has a reported IC50 of 9.6
